Target: T1, recombinant human IP-10 (human, UniProt P02778 22-98)
T1 sequence: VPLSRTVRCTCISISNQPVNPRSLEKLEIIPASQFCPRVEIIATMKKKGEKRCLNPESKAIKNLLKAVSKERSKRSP
Test: cell-based or functional assay
Measure name: inhibition of chemotaxis (IC50%) on recombinant IP-10, donor 215 (µg/mL)
The figure you give is taken to be in µg/mL; do not add the unit.

inhibition of chemotaxis (IC50%) on recombinant IP-10, donor 215 recorded for this binder, murine monoclonal antibody AIP12 (antibody, V domains shown, Mouse hybridoma antibody; also called MuAIP12) VH: QIQLVQSGPELKKPGETVKISCKASGYTFTDYSMHWVKQAPGKGLKWMGWINTETGEPTYADDFKGRFAFSLETSASTAYLQINNLKNEDTATYFCARNYDYDGYFDVWGAGTTVTVSS VL: DIQMTQSPSSLSASLGGKVTITCKASQDINKYIAWYQHKPGKGPRLLIHYTSTLQPGIPSRFSGSGSGRDYSFSISNLEPEDIATYYCLQYDNLLFTFGSGTKLEIK , is 0.13

inhibition of chemotaxis (IC50%) on recombinant IP-10, donor 215 recorded for this binder, humanized monoclonal antibody HuAIP13 (antibody, human IgG1, V domains shown, Human IgG1/kappa) VH: EVQLVQSGAEVKKPGATVKISCKVSGYTFTDYSMHWVRQAPGKGLKWMGWINTEIGEPTYADDFKGRFTFTLDTSTSTAYMELSSLRSEDTAVYYCARNYDYDAYFDVWGQGTTVTVSS VL: DIQMTQSPSSLSASVGDRVTITCKADQDINKYIAWYQQKPGKAPKLLLHHTSTLQPGIPSRFSGSGSGRDYTFTISSLQPEDIATYYCLQYDSLLFTFGQGTKLEIK , is 0.139

inhibition of chemotaxis (IC50%) on recombinant IP-10, donor 215 recorded for this binder, humanized monoclonal antibody HuAIP12 (antibody, human IgG1, V domains shown, Human IgG1/kappa; also called unmodified HuAIP12; Wild Type) VH: EVQLVQSGAEVKKPGATVKISCKVSGYTFTDYSMHWVRQAPGKGLKWMGWINTETGEPTYADDFKGRFTFTLDTSTSTAYMELSSLRSEDTAVYYCARNYDYDGYFDVWGQGTTVTVSS VL: DIQMTQSPSSLSASVGDRVTITCKASQDINKYIAWYQQKPGKAPKLLIHYTSTLQPGIPSRFSGSGSGRDYTFTISSLQPEDIATYYCLQYDNLLFTFGQGTKLEIK , is 0.142

inhibition of chemotaxis (IC50%) on recombinant IP-10, donor 215 recorded for this binder, murine monoclonal antibody AIP13 (antibody, V domains shown, Mouse hybridoma antibody; Mouse IgG1/kappa was used as its isotype control; also called MuAIP13) VH: QIQLVQSGPELKKPGETVKISCKASGYTFTDYSMHWVKQAPGKGLKWMGWINTEIGEPTYADDFKGRFAFSLETSASTAYLQINNLKNEDTATYFCARNYDYDAYFDVWGAGTTVTVSS VL: DIQMTQSPSSLSASLGGKVTITCKADQDINKYIAWYQHKPGRGPRLLLHHTSTLQPGIPSRFSGSGSGRDYSFSISNLEPADIATYYCLQYDSLLFTFGSGTKLEIK , is 0.26

Reference source: patent EP1708961B1
